Test: activity coefficient (dimensionless); of the first substance listed, at infinite dilution; xn = mol fraction of the nth substance listed
Conditions: 312.55 K; 101 kPa; Liquid; Chromatography; x1 = 0
measured-attribute: activity coefficient

compound="CCC(C)CC [3-methylpentane] + CCn1cc[n+](C)c1.CS(=O)(=O)[O-]" measurement=157
compound="ClC(Cl)(Cl)Cl [tetrachloromethane] + CCn1cc[n+](C)c1.CS(=O)(=O)[O-]" measurement=4.57
compound="CCO [ethanol] + CCn1cc[n+](C)c1.CS(=O)(=O)[O-]" measurement=0.438
compound="CCCCCC [hexane] + CCn1cc[n+](C)c1.CS(=O)(=O)[O-]" measurement=207
compound="C[N+](=O)[O-] [nitromethane] + CCn1cc[n+](C)c1.CS(=O)(=O)[O-]" measurement=2.06
compound="CCCCCCC [heptane] + CCn1cc[n+](C)c1.CS(=O)(=O)[O-]" measurement=432
compound="CCOCC [diethyl ether] + CCn1cc[n+](C)c1.CS(=O)(=O)[O-]" measurement=21.8
compound="CC(C)CC(C)(C)C [2,2,4-trimethylpentane] + CCn1cc[n+](C)c1.CS(=O)(=O)[O-]" measurement=445

----------
Item-by-item account of activity coefficient
Assay: activity coefficient (dimensionless); of the first substance listed, at infinite dilution; xn = mol fraction of the nth substance listed
Conditions: 312.8 K; 101 kPa; Liquid; Chromatography; x1 = 0
measured-attribute: activity coefficient

compound="CCC(=O)CC [pentan-3-one] + CCCCCC[n+]1ccn(C)c1.FC(F)(F)C(F)(F)[P-](F)(F)(F)(C(F)(F)C(F)(F)F)C(F)(F)C(F)(F)F" measurement=0.236
compound="C1COCCO1 [1,4-dioxane] + CCCCCC[n+]1ccn(C)c1.FC(F)(F)C(F)(F)[P-](F)(F)(F)(C(F)(F)C(F)(F)F)C(F)(F)C(F)(F)F" measurement=0.273
compound="c1ccsc1 [thiophene] + CCCCCC[n+]1ccn(C)c1.FC(F)(F)C(F)(F)[P-](F)(F)(F)(C(F)(F)C(F)(F)F)C(F)(F)C(F)(F)F" measurement=0.577

----------
Experiment: activity coefficient (dimensionless); of the first substance listed, at infinite dilution; xn = mol fraction of the nth substance listed
Settings: 332.45 K; 101 kPa; Liquid; Chromatography; x1 = 0
Kind request: treat 8 as inclusive, so activity coefficient at 8 or higher is class 1, anything lower is class 0.

compound="ClC(Cl)Cl [trichloromethane] + CCn1cc[n+](C)c1.CS(=O)(=O)[O-]" category="class 0"
compound="CCCO [propan-1-ol] + CCn1cc[n+](C)c1.CS(=O)(=O)[O-]" category="class 0"
compound="CCN(CC)CC [triethylamine] + CCn1cc[n+](C)c1.CS(=O)(=O)[O-]" category="class 1"
compound="C[N+](=O)[O-] [nitromethane] + CCn1cc[n+](C)c1.CS(=O)(=O)[O-]" category="class 0"
compound="CC(C)OC(C)C [diisopropyl ether] + CCn1cc[n+](C)c1.CS(=O)(=O)[O-]" category="class 1"
compound="CCC(C)CC [3-methylpentane] + CCn1cc[n+](C)c1.CS(=O)(=O)[O-]" category="class 1"
compound="CC(C)CC(C)(C)C [2,2,4-trimethylpentane] + CCn1cc[n+](C)c1.CS(=O)(=O)[O-]" category="class 1"
compound="CCCC=O [butanal] + CCn1cc[n+](C)c1.CS(=O)(=O)[O-]" category="class 0"
compound="CCC(=O)CC [pentan-3-one] + CCn1cc[n+](C)c1.CS(=O)(=O)[O-]" category="class 0"
compound="CCCCCCC [heptane] + CCn1cc[n+](C)c1.CS(=O)(=O)[O-]" category="class 1"
compound="CO [methanol] + CCn1cc[n+](C)c1.CS(=O)(=O)[O-]" category="class 0"
compound="CCCCCCCCCCCCC [tridecane] + CCn1cc[n+](C)c1.CS(=O)(=O)[O-]" category="class 1"
compound="ClC(Cl)(Cl)Cl [tetrachloromethane] + CCn1cc[n+](C)c1.CS(=O)(=O)[O-]" category="class 0"
compound="CCO [ethanol] + CCn1cc[n+](C)c1.CS(=O)(=O)[O-]" category="class 0"
compound="CC(C)O [propan-2-ol] + CCn1cc[n+](C)c1.CS(=O)(=O)[O-]" category="class 0"
compound="CCCCCC [hexane] + CCn1cc[n+](C)c1.CS(=O)(=O)[O-]" category="class 1"
compound="CC#N [acetonitrile] + CCn1cc[n+](C)c1.CS(=O)(=O)[O-]" category="class 0"
compound="CCCC(C)=O [pentan-2-one] + CCn1cc[n+](C)c1.CS(=O)(=O)[O-]" category="class 0"
compound="CCCCCCCCCCCCCC [tetradecane] + CCn1cc[n+](C)c1.CS(=O)(=O)[O-]" category="class 1"
